Values were extracted from ChEMBL document CHEMBL3507680.

Experiment: Human HepG2 cell viability assay in 384 well format
Format: toxicity, cell-based
Design: dose 125 nL, time 70.5 hour; concentration not given beside the values
Conditions: HepG2 cells, read-out: Inhibition
recordedEndpoint: cytotoxicity at 70.5 h (%)
Give the number; % is assumed, so skip it.

A selection of reference data follows.
compound	cytotoxicity at 70.5 h [%]
Cn1ccnc1-c1ccc(NCC2COCCO2)nn1 (configuration not stated)	-5.53
CC(NCC1CCN(CCO)CC1)c1cccnc1 (configuration not stated)	28.1
O=c1[nH]c2csnc2c(=O)n1Cc1ccc(Br)cc1	-10.2
N#CCc1cccc(C(=O)N2CCN(CC(O)c3ccccc3)CC2)c1 (configuration not stated)	2.39
CN1CCO[C@@H]2CN(S(=O)(=O)c3cccnc3)C[C@@H]2C1	2.04
Cn1cc(C2COC3(CCN(C(=O)c4ccsc4)CC3)C2)cn1 (configuration not stated)	-15.9
CC(=O)NC1CCN(c2ccnc(C3CCNCC3)c2)CC1	-5.48
CCn1c(CN(C)CC(F)(F)F)nc2c(F)cccc21	-0.949

What the record says about Cc1ccc(CN2CC[C@H]3CO[C@H](CN(C)Cc4ccco4)[C@H]3C2)s1 : cytotoxicity at 70.5 h is 4.82

Looking up CC(C1CCN(Cc2c(Cl)ccc(O)c2Cl)CC1)N1CCN(C)CC1 (configuration not stated) , I found its cytotoxicity at 70.5 h recorded as -4.03

Lab note: CCCN(C)C(=O)c1ccc2c(c1)[nH]c(=O)n2CCOCC gave cytotoxicity at 70.5 h of 13.7

Reported cytotoxicity at 70.5 h ( O=C(c1cnccn1)N1CCC(F)(F)C2(CCN(c3ccccn3)C2)C1 (configuration not stated) ) = -8.49

The compound Cc1ncnc2c1CCN(c1cc(C(F)(F)F)ncn1)CC2 showed cytotoxicity at 70.5 h equal to -17.8

====

// cytotoxicity at 70.5 h lookup, one value per entry
Test: Human HepG2 cell viability assay in 384 well format
Format: toxicity, cell-based
Design: dose 125 nL, time 70.5 hour; concentration not given beside the values
Details: HepG2 cells, read-out: Inhibition
Expressed in %, but write only the number.

Example cases with answers are listed next.
compound	cytotoxicity at 70.5 h [%]
CC(=O)N1CC[C@H]2OCC[C@@]2(C(=O)NCc2ccco2)C1	1.98
O=C1N(c2cncnc2)CCC12CCCN(Cc1ccccn1)C2 (stereo unspecified)	-9.94
C1CCC(OCCN2CCN(CCOC3CCCCC3)CC2)CC1	-5.88
Cc1ccc(-n2cnc(Cl)c2CO)cc1	-3.28
CCc1ncc(C(=O)N2CCCCC2Cn2cccn2)s1 (stereo unspecified)	-7.11
O=C(Cn1cnnn1)NC(c1ccccc1)c1ccc2c(c1)CCCO2 (stereo unspecified)	24.4
Cc1ncc(C(=O)N2CC[C@@]3(O)CCN(C(=O)N(C)C)C[C@H]3C2)cn1	-12.2
CCCN1CCC(CNC(=O)C2(c3cccc(C)c3)CC2)C1 (stereo unspecified)	4.42
CN(Cc1c(F)cccc1Cl)C(=O)CN(C)C1CCc2ccccc21 (stereo unspecified)	-5.53
COCCC(=O)N1CC[C@H]2O[C@@H](C)C[C@H]2C1	-7.16

With those in mind, consider the next compound.
In plain terms, N#CCCN(C(=O)CN1CCCC1c1ccccc1Cl)c1ccccc1 (stereo unspecified) has a documented cytotoxicity at 70.5 h of -11.7

====

Test: Human HepG2 cell viability assay in 384 well format
Format: toxicity, cell-based
Set-up: dose 125 nL, time 70.5 hour; concentration not given beside the values
Details: HepG2 cells, read-out: Inhibition
recordedEndpoint: cytotoxicity at 70.5 h

The molecule identified as COc1ccc(-n2ccc(C(=O)N3CCC(C(N)=O)C3)n2)cc1 (stereo unspecified) registered its cytotoxicity at 70.5 h at 23.5%

molecule Cc1cc(C(=O)N2CCn3cc(CN4CCCC4)nc3C2)no1 , cytotoxicity at 70.5 h observed: -13.3%

Form field cytotoxicity at 70.5 h, entry Cc1nc(=O)c2ccccc2n1C1=CCN(CC(=O)NC(C)C)CC1 : -1.95%

In plain terms, c1cc(-c2nc3c(c(NCCn4ccnn4)n2)CCNCC3)ccn1 has a documented cytotoxicity at 70.5 h of 0.89%

In plain terms, CCN(Cc1cccc2c1OCO2)C(=O)Nc1ccncc1 has a documented cytotoxicity at 70.5 h of 5.81%

Query Cc1cccc(CNC(Cc2ccsc2)c2nc(C)c(C)s2)n1 (stereo unspecified) yields cytotoxicity at 70.5 h of 1.1%

====

Experiment: Human HepG2 cell viability assay in 384 well format
Assay type: toxicity, cell-based
Design: dose 125 nL, time 70.5 hour; concentration not given beside the values
Details: HepG2 cells, read-out: Inhibition
recordedEndpoint: cytotoxicity at 70.5 h
Please provide the amount together with its unit, number first.

Solved entries (count: 2):
molecule	cytotoxicity at 70.5 h
COCC(=O)N1CC(C(=O)NCC2CC2)C2(CCOCC2)C1 (stereo unspecified)	-3.19%
CN(C)C(C(=O)N1CCN(CCn2cccc2)CC1)c1ccc(F)cc1 (stereo unspecified)	-3.42%

For reference, reported cytotoxicity at 70.5 h for Cc1cc(C)nc(C2CCN(c3ccncn3)C2)n1 (stereo unspecified) stands at -2.27%

====

Measured cytotoxicity at 70.5 h, listed per entry for reference.
Assay: Human HepG2 cell viability assay in 384 well format
Assay type: toxicity, cell-based
Set-up: dose 125 nL, time 70.5 hour; concentration not given beside the values
Settings: HepG2 cells, read-out: Inhibition
Give the quantity in %, number only.

Past entries and their recorded results:
compound	readoutUnits	cytotoxicity at 70.5 h
COc1ccc(OC)c(CNC2CCCc3nc(N(C)C)ncc32)c1 (stereo not drawn)	%	-7.31
O=C(c1n[nH]c2c1CN(C1CCOCC1)CC2)N1CCCC1	%	-6.32
Cc1cc(-c2nccs2)nc(C2CCN(Cc3ccccn3)CC2)n1	%	-3.72
O=C(c1ccccn1)N1CCN(C(c2ccccc2)C(F)(F)F)CC1 (stereo not drawn)	%	11.9
Cc1ccc(=O)n(CC(=O)N(C)Cc2csc(-c3cccs3)n2)n1	%	-7.16
Cc1noc(CN(Cc2cccs2)C2CCS(=O)(=O)C2)n1 (stereo not drawn)	%	-3.18
CCn1ccnc1CN1CCCN(C(=O)c2ccnn2C)CC1	%	-3.84
CC(C)(C)Oc1ccc(CN)c(C(F)(F)F)c1	%	6.84

Lab note: COc1ccc2nc(CCNC(=O)c3cc(CC(C)C)no3)[nH]c2c1 gave cytotoxicity at 70.5 h of -15.4

Per the record, CCOc1cc(CN(C)CC(C)(C)O)ccc1OC(F)F has cytotoxicity at 70.5 h of 4.76

GET /value?item= C[C@@H]1CN(c2ccc3c(Cl)ccnc3c2F)CC(C(N)=O)O1 (stereo partly drawn) &field=cytotoxicity at 70.5 h returns -4.78

O=C(NC[C@H]1OC[C@@H](NC2CCNCC2)[C@@H]1O)C1CCCC1 has a reported cytotoxicity at 70.5 h of -5.05

Record Cn1cc(C(=O)N2C[C@@H]3CN(S(C)(=O)=O)CCO[C@@H]3C2)cn1 . Reported cytotoxicity at 70.5 h: -0.664

Given item O=C(NC1CC1)N1CCCC2(CCCCN2)C1 (stereo not drawn) , the value recorded as its cytotoxicity at 70.5 h is -5.05

Record CNC(=O)C1CCN(C(=O)CCn2cccn2)CC1 . Reported cytotoxicity at 70.5 h: 26.7

====

Assay: Human HepG2 cell viability assay in 384 well format
Type: toxicity, cell-based
Set-up: dose 125 nL, time 70.5 hour; concentration not given beside the values
Details: HepG2 cells, read-out: Inhibition
recordedEndpoint: cytotoxicity at 70.5 h (%)
# value in %; strip the unit string

The compound listed as COCC1c2c(cnn2CC2CC2)CCN1Cc1cc(C)on1 (configuration not stated) shows cytotoxicity at 70.5 h equal to -12.7

The reported cytotoxicity at 70.5 h of the compound O=C(N1CCCC1)N1C[C@@H]2CN(Cc3ccoc3)CCO[C@@H]2C1 was -11.3

Entry under test: O=C(C1CC1)N1CCC2(CCN2Cc2ccc(F)cc2)C1 (configuration not stated) . Its cytotoxicity at 70.5 h was -0.516

Value of cytotoxicity at 70.5 h reported for the compound Cc1ccc(CNCC2CCc3nnc(C(C)C)n3C2)s1 (configuration not stated) is -6.69

Lab book: cytotoxicity at 70.5 h of COc1ccc2c(c1)NC(C1CCN(C(=O)C3CC3)CC1)NS2(=O)=O (configuration not stated) noted as -4.62

====

# maps each entry to its cytotoxicity at 70.5 h
Assay: Human HepG2 cell viability assay in 384 well format
Format: toxicity, cell-based
Parameters: dose 125 nL, time 70.5 hour; concentration not given beside the values
Settings: HepG2 cells, read-out: Inhibition
Give just the number in %; leave the unit off.

compound	cytotoxicity at 70.5 h, %
CNc1snc(C)c1C(=O)N1CCCC(n2ccnc2C(C)C)C1 (configuration not stated)	-5.8
CC1CN(C(=O)c2cnn(-c3ccccn3)c2C(C)C)CC(C)(C)O1 (configuration not stated)	-4.17
CN(C)C1COC2(CCN(C(=O)c3cccc(Cl)c3)CC2)C1 (configuration not stated)	-9.63
CC(C)COC(C)C(=O)NCc1ccc(N(C)C)cc1 (configuration not stated)	7.68
CNC(=O)NC(C)c1nc(-c2ccc(Br)cc2)no1 (configuration not stated)	9.87
COc1cc(NCCNC(=O)c2cc[nH]c2C)cc(OC)c1	3.9
Cc1ccc(OCCSCCn2nc3ccccn3c2=O)cc1	-10.4
Cc1ccccc1CC(=O)N(C)C1CCN(c2ccccn2)CC1	25.2
Cc1nc(CN(Cc2cccnc2)Cc2ccsc2)c[nH]1	0.327
CN1CC[C@]2(CN(C(=O)[C@H]3CCCO3)C[C@H]2c2ccccc2)C1=O	-2.45

response.value for Cc1cccnc1CN(C)C(C(=O)O)c1ccc(-n2cccn2)cc1 (configuration not stated) (field: cytotoxicity at 70.5 h) = -2.91

Quick note, cytotoxicity at 70.5 h for CSc1cccc(CN(C)C(=O)c2cccc(C3CCCNC3)c2)c1 (configuration not stated) landed at -2.36

Input CCSC(C)c1nc(-c2ccc(C)nn2)no1 (configuration not stated) . Output cytotoxicity at 70.5 h: 4.73

Form field cytotoxicity at 70.5 h, entry Cc1ccc2c(c1)C1(CC(=O)Nc3[nH]ncc31)C(=O)N2C (configuration not stated) : -21.9

Item: COCCn1cnc(-c2nc(C(=O)N3CCOCC3)c3ccccn23)c1 | cytotoxicity at 70.5 h: 5.18
